Attribution: paper PMC7852567

Assay: Plasma and urine pharmacokinetics in patients (LC-MS/MS, non-compartmental)
Format: in vivo, human
Details: human, plasma, oral; blood concentrations, across dose levels
Method: Blood samples for PK analysis were collected in cycle 1, on days 1, 4 and 18 pre-dose and at 0.5, 1, 2, 3, 5, 8, and 12 h post-dose. Urine samples were collected on day 1 of cycle 1 before dosing and from 0 to 12 h after dosing. Plasma and urine concentrations of TAS-119 were determined by validated liquid chromatography–tandem mass spectrometry method. […]
Quantity: half-life

Endpoint output: half-life of Cc1cc(Nc2nc(CC3(C(=O)O)CCN(C(=O)c4cccc(Cl)c4Cl)CC3)ccc2F)n[nH]1 [TAS-119] . Value? 168 to 360 min

###

Test: Plasma and urine pharmacokinetics in patients (LC-MS/MS, non-compartmental)
Type: in vivo, human
Conditions: human, plasma, po, plasma, oral, all dose levels; read-out: Tmax range
Quantity: Tmax

Request the reported Tmax associated with Cc1cc(Nc2nc(CC3(C(=O)O)CCN(C(=O)c4cccc(Cl)c4Cl)CC3)ccc2F)n[nH]1 0.5 to 2 h

###

Assay: Plasma and urine pharmacokinetics in patients (LC-MS/MS, non-compartmental)
Format: in vivo, human
Conditions: human, urine, oral, urine 0 to 12 h, cycle 1 day 1; read-out: CLr (renal clearance), median (converted)
Quantity: CL renal (mL/min)
Please give a number only; it is taken to be in mL/min.

What does the data say about its CL renal? Entry: Cc1cc(Nc2nc(CC3(C(=O)O)CCN(C(=O)c4cccc(Cl)c4Cl)CC3)ccc2F)n[nH]1 4.17

###

Test: Plasma and urine pharmacokinetics in patients (LC-MS/MS, non-compartmental)
Assay type: in vivo, human
Details: human, plasma, po, plasma, oral, all dose levels; read-out: median Tmax
Quantity: Tmax (h)
The reply should be a number in h, with the unit left off.

Look up Tmax: Cc1cc(Nc2nc(CC3(C(=O)O)CCN(C(=O)c4cccc(Cl)c4Cl)CC3)ccc2F)n[nH]1 1.2

###

Experiment: Plasma and urine pharmacokinetics in patients (LC-MS/MS, non-compartmental)
Type: in vivo, human
Conditions: human, urine, oral, urine 0 to 12 h, cycle 1 day 1; read-out: CLr (renal clearance), range
Quantity: CL renal

Reported CL renal for Cc1cc(Nc2nc(CC3(C(=O)O)CCN(C(=O)c4cccc(Cl)c4Cl)CC3)ccc2F)n[nH]1 : what is it? 2.5 to 5.17 mL/min
